# procedure summary: Cytotoxicity against theophylline-stimulated mouse B16-4A5 cells assessed as cell viability at 100 uM after 72 hrs by MTT assay relative to control
# Assay type: toxicity
# condition label: theophylline-stimulated B16-4A5 cells, read-out: Activity
# viability at 72 h, 100 µM per record follows
measurement name: viability at 72 h, 100 µM (%)

compound: C=C[C@H](O)c1ccc(OC(C)=O)c(OC)c1
measurement name: viability at 72 h, 100 µM
quantitative readout: 124
--
compound: CCC(=O)c1ccc(O)cc1
measurement name: viability at 72 h, 100 µM
quantitative readout: 125
--
compound: CC(=O)Oc1ccc(/C=C/CO)cc1
measurement name: viability at 72 h, 100 µM
quantitative readout: 44.9
--
compound: O=Cc1ccc(O)cc1 [4-HYDROXYBENZALDEHYDE]
measurement name: viability at 72 h, 100 µM
quantitative readout: 103
--
compound: C=C[C@H](O)c1ccc(OC(C)=O)cc1
measurement name: viability at 72 h, 100 µM
quantitative readout: 114
--
compound: OC/C=C/c1ccc(O)cc1
measurement name: viability at 72 h, 100 µM
quantitative readout: 110
--
compound: COC/C=C/c1ccc(O)cc1
measurement name: viability at 72 h, 100 µM
quantitative readout: 107
--
compound: CC(=O)OC/C=C/c1ccc(O)cc1
measurement name: viability at 72 h, 100 µM
quantitative readout: 90.1
--
compound: COc1cc(/C=C/CO)ccc1OC(C)=O
measurement name: viability at 72 h, 100 µM
quantitative readout: 41.7

* * *

# procedure summary: Cytotoxicity against theophylline-stimulated mouse B16-4A5 cells assessed as cell viability at 100 uM after 72 hrs by MTT assay relative to control
# Assay type: toxicity
# condition label: theophylline-stimulated B16-4A5 cells, read-out: Activity
# viability at 72 h, 100 µM per record follows

compound: COc1cc(/C=C/CO)ccc1O [CONIFERYL ALCOHOL]
viability at 72 h, 100 µM (%): 33.1
//
compound: OC[C@H]1O[C@@H](Oc2ccc(O)cc2)[C@H](O)[C@@H](O)[C@@H]1O [ARBUTIN]
viability at 72 h, 100 µM (%): 78.1
//
compound: COc1cc(C=O)ccc1O [VANILLIN]
viability at 72 h, 100 µM (%): 106
//
compound: COc1cc(/C=C/C=O)ccc1O [CONIFERYL ALDEHYDE]
viability at 72 h, 100 µM (%): 44.7
//
compound: O=C/C=C/c1ccc(O)cc1 [p-HYDROXYCINNAMALDEHYDE]
viability at 72 h, 100 µM (%): 66.8
//
compound: CC[C@H](OC(C)=O)c1ccc(OC(C)=O)cc1
viability at 72 h, 100 µM (%): 94.5

* * *

# procedure summary: Cytotoxicity against theophylline-stimulated mouse B16-4A5 cells assessed as cell viability at 1 uM after 72 hrs by MTT assay relative to control
# Format: toxicity
# condition label: theophylline-stimulated B16-4A5 cells, read-out: Activity
# viability at 72 h, 1 µM per record follows

compound: C=CC(OC/C=C/c1ccc(OC(C)=O)cc1)c1ccc(OC(C)=O)cc1 (racemic)
unit info: %
viability at 72 h, 1 µM: 99.3
//
compound: C=CC(OC(C)=O)c1ccc(OC(C)=O)cc1 (racemic)
unit info: %
viability at 72 h, 1 µM: 104
//
compound: C=C[C@H](OC/C=C/c1ccc(OC(C)=O)cc1)c1ccc(OC(C)=O)cc1
unit info: %
viability at 72 h, 1 µM: 82.9
//
compound: C=C[C@@H](OC/C=C/c1ccc(O)cc1)c1ccc(O)cc1
unit info: %
viability at 72 h, 1 µM: 107
//
compound: C=C[C@H](OC/C=C/c1ccc(O)cc1)c1ccc(O)cc1
unit info: %
viability at 72 h, 1 µM: 119
//
compound: C=CC(OC/C=C/c1ccc(O)cc1)c1ccc(O)cc1 (racemic)
unit info: %
viability at 72 h, 1 µM: 95.1
//
compound: C=C[C@@H](OC(C)=O)c1ccc(OC(C)=O)cc1
unit info: %
viability at 72 h, 1 µM: 98.8
//
compound: C=C[C@H](OC(C)=O)c1ccc(OC(C)=O)c(OC)c1
unit info: %
viability at 72 h, 1 µM: 105
//
compound: C=C[C@H](OC(C)=O)c1ccc(OC(C)=O)cc1 [1'-ACETOXYCHAVICOL ACETATE]
unit info: %
viability at 72 h, 1 µM: 102
//
compound: C=C[C@@H](OC/C=C/c1ccc(OC(C)=O)cc1)c1ccc(OC(C)=O)cc1
unit info: %
viability at 72 h, 1 µM: 102

* * *

# procedure summary: Cytotoxicity against theophylline-stimulated mouse B16-4A5 cells assessed as cell viability at 3 uM after 72 hrs by MTT assay relative to control
# Format: toxicity
# condition label: theophylline-stimulated B16-4A5 cells, read-out: Activity

compound: COc1cc(/C=C/CO)ccc1O
viability at 72 h, 3 µM: 98.9%

compound: O=Cc1ccc(O)cc1 [4-HYDROXYBENZALDEHYDE]
viability at 72 h, 3 µM: 107%

compound: C=C[C@H](OC/C=C/c1ccc(OC(C)=O)cc1)c1ccc(OC(C)=O)cc1
viability at 72 h, 3 µM: 68.5%

compound: COc1cc(C=O)ccc1O
viability at 72 h, 3 µM: 108%

compound: O=C/C=C/c1ccc(O)cc1 [p-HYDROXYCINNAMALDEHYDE]
viability at 72 h, 3 µM: 103%

compound: C=C[C@H](OC(C)=O)c1ccc(OC(C)=O)cc1 [1'-ACETOXYCHAVICOL ACETATE]
viability at 72 h, 3 µM: 99.9%

* * *

# procedure summary: Downregulation of tyrosinase expression in theophylline-stimulated mouse B16-4A5 cells assessed as ratio of tyrosinase mRNA expression to beta-actin mRNA expression at 3 uM after 72 hrs by qRT-PCR analysis (reference value: […] +/- […])
# Assay type: functional, cell-based
Mark MET for Ratio under 1, NOT MET if at or over.

molecule: C=C[C@@H](OC/C=C/c1ccc(OC(C)=O)cc1)c1ccc(OC(C)=O)cc1
class name: MET

molecule: C=C[C@H](OC/C=C/c1ccc(OC(C)=O)cc1)c1ccc(OC(C)=O)cc1
class name: MET

molecule: C=CC(OC/C=C/c1ccc(OC(C)=O)cc1)c1ccc(OC(C)=O)cc1 (racemic)
class name: MET

molecule: C=C[C@H](OC(C)=O)c1ccc(OC(C)=O)c(OC)c1
class name: NOT MET

* * *

# procedure summary: Cytotoxicity against theophylline-stimulated mouse B16-4A5 cells assessed as cell viability at 10 uM after 72 hrs by MTT assay relative to control
# Assay type: toxicity
# condition label: theophylline-stimulated B16-4A5 cells, read-out: Activity
# viability at 72 h, 10 µM per record follows
measurement name: viability at 72 h, 10 µM

compound: COc1cc(/C=C/CO)ccc1OC(C)=O
measurement name: viability at 72 h, 10 µM
result: 85.9%
//
compound: C=C[C@@H](OC/C=C/c1ccc(OC(C)=O)cc1)c1ccc(OC(C)=O)cc1
measurement name: viability at 72 h, 10 µM
result: 29.7%
//
compound: C=C[C@H](OC/C=C/c1ccc(OC(C)=O)cc1)c1ccc(OC(C)=O)cc1
measurement name: viability at 72 h, 10 µM
result: 26.5%
//
compound: CC(=O)OC/C=C/c1ccc(O)cc1
measurement name: viability at 72 h, 10 µM
result: 100%
//
compound: COc1cc(/C=C/CO)ccc1O
measurement name: viability at 72 h, 10 µM
result: 98.2%
//
compound: OC/C=C/c1ccc(O)cc1
measurement name: viability at 72 h, 10 µM
result: 98.4%
//
compound: C=C[C@H](OC(C)=O)c1ccc(OC(C)=O)c(OC)c1
measurement name: viability at 72 h, 10 µM
result: 42.3%
//
compound: COC/C=C/c1ccc(O)cc1
measurement name: viability at 72 h, 10 µM
result: 104%
//
compound: C=CC(OC(C)=O)c1ccc(OC(C)=O)cc1 (racemic)
measurement name: viability at 72 h, 10 µM
result: 31.8%
//
compound: C=CC(OC/C=C/c1ccc(O)cc1)c1ccc(O)cc1 (racemic)
measurement name: viability at 72 h, 10 µM
result: 105%
//
compound: C=C[C@H](OC(C)=O)c1ccc(OC(C)=O)cc1 [1'-ACETOXYCHAVICOL ACETATE]
measurement name: viability at 72 h, 10 µM
result: 99.9%
//
compound: CC(=O)Oc1ccc(/C=C/CO)cc1
measurement name: viability at 72 h, 10 µM
result: 85.8%
//
compound: C=C[C@@H](OC/C=C/c1ccc(O)cc1)c1ccc(O)cc1
measurement name: viability at 72 h, 10 µM
result: 93.9%
//
compound: O=C/C=C/c1ccc(O)cc1 [p-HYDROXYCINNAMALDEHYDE]
measurement name: viability at 72 h, 10 µM
result: 108%
//
compound: CCC(=O)c1ccc(O)cc1
measurement name: viability at 72 h, 10 µM
result: 116%
//
compound: C=CC(OC/C=C/c1ccc(OC(C)=O)cc1)c1ccc(OC(C)=O)cc1 (racemic)
measurement name: viability at 72 h, 10 µM
result: 12.9%
//
compound: C=C[C@H](OC/C=C/c1ccc(O)cc1)c1ccc(O)cc1
measurement name: viability at 72 h, 10 µM
result: 114%
//
compound: COc1cc(C=O)ccc1O
measurement name: viability at 72 h, 10 µM
result: 104%
//
compound: O=Cc1ccc(O)cc1 [4-HYDROXYBENZALDEHYDE]
measurement name: viability at 72 h, 10 µM
result: 103%
//
compound: C=C[C@H](O)c1ccc(OC(C)=O)c(OC)c1
measurement name: viability at 72 h, 10 µM
result: 114%
//
compound: CC[C@H](OC(C)=O)c1ccc(OC(C)=O)cc1
measurement name: viability at 72 h, 10 µM
result: 105%
//
compound: C=C[C@@H](OC(C)=O)c1ccc(OC(C)=O)cc1
measurement name: viability at 72 h, 10 µM
result: 88.7%
//
compound: C=C[C@H](O)c1ccc(OC(C)=O)cc1
measurement name: viability at 72 h, 10 µM
result: 97.2%
//
compound: COc1cc(/C=C/C=O)ccc1O
measurement name: viability at 72 h, 10 µM
result: 85.8%
